test system: HepG2; assay: Antiproliferative activity against human HepG2 cells assessed as reduction in cell viability measured after 48 hrs by MTT assay; assay type: functional, cell-based; settings: HepG2, 48 h
propertyName: IC50 (nM)

>  <compound>
Cc1ccc(-c2nc(-c3ccc(-c4nc(-c5nnc(-c6ccncc6)o5)c[nH]4)cc3)no2)cc1

>  <IC50 [nM]>
2120

$$$$
>  <compound>
Brc1ccc(-c2nc(-c3ccc(-c4nc(-c5nnc(-c6ccncc6)o5)c[nH]4)cc3)no2)cc1

>  <IC50 [nM]>
3760

$$$$
>  <compound>
COc1ccc(-c2nc(-c3ccc(-c4nc(-c5nnc(-c6ccncc6)o5)c[nH]4)cc3)no2)cc1

>  <IC50 [nM]>
1240

$$$$
>  <compound>
N#Cc1ccc(-c2nc(-c3ccc(-c4nc(-c5nnc(-c6ccncc6)o5)c[nH]4)cc3)no2)cc1

>  <IC50 [nM]>
6990

$$$$
>  <compound>
COc1cc([C@@H]2c3cc4c(cc3[C@@H](O[C@@H]3O[C@@H]5CO[C@@H](C)O[C@H]5[C@H](O)[C@H]3O)[C@H]3COC(=O)[C@H]23)OCO4)cc(OC)c1O [ETOPOSIDE]

>  <IC50 [nM]>
2110

$$$$
>  <compound>
CN(C)c1ccc(-c2nc(-c3ccc(-c4nc(-c5nnc(-c6ccncc6)o5)c[nH]4)cc3)no2)cc1

>  <IC50 [nM]>
1780

$$$$

A. Clc1ccc(-c2nc(-c3ccc(-c4nc(-c5nnc(-c6ccncc6)o5)c[nH]4)cc3)no2)cc1
B. O=[N+]([O-])c1cc(-c2nc(-c3ccc(-c4nc(-c5nnc(-c6ccncc6)o5)c[nH]4)cc3)no2)cc([N+](=O)[O-])c1
C. COc1cc(-c2nc(-c3ccc(-c4nc(-c5nnc(-c6ccncc6)o5)c[nH]4)cc3)no2)cc(OC)c1OC
D. COc1cc(OC)cc(-c2nc(-c3ccc(-c4nc(-c5nnc(-c6ccncc6)o5)c[nH]4)cc3)no2)c1
Q) Please list the entries, largest IC50 first. Labels, requested order.
A) A, B, D, C
(A: 5780 nM, B: 3610 nM, D: 273 nM, C: 110 nM)
